- System: Schistosoma mansoni
- method summary: Antischistosomal activity against Schistosoma mansoni Puerto-Rican assessed as worm mortality incubated for 5 days by stereomicroscopic method
- Assay type: functional, organism-based
- run parameters: 120 h, time 5 day
Param label: returns met when IC90 < 10 µM, returns not met otherwise, including exact equality.

Worked examples follow.
| compound | group |
| --- | --- |
| Cn1c2nc3ccccc3c-2c(N2CCC(N3CCCCC3)CC2)c2cc(Cl)ccc21 | not met |
| CN(C)CCNc1c2c3ccccc3nc-2n(C)c2ccc(Cl)cc12 | not met |
| Cn1c2nc3ccccc3c-2c(N2CCN(CCO)CC2)c2cc(Cl)ccc21 | met |
| Cn1c2nc3ccccc3c-2c(NCCN2CCOCC2)c2cc(Cl)ccc21 | met |
| CCN(CC)CCCC(C)Nc1c2c3ccccc3nc-2n(C)c2cc(Cl)ccc12 (stereo not drawn) | not met |

Query :: Please state whether IC90 is below 10 µM for CN1CCN(c2c3cc(Cl)ccc3nc3[nH]c4ccccc4c23)CC1
Result :: not met

Query :: Further, for Clc1ccc2nc3[nH]c4ccccc4c3c(NCCN3CCOCC3)c2c1 ?
Result :: not met

Query :: How about this compound: CCN(CC)CCCC(C)Nc1c2c3ccccc3nc-2n(C)c2ccc(Cl)cc12 (stereo not drawn)
Result :: not met

----------
- Test system: Schistosoma mansoni
- method summary: Antischistosomal activity against Schistosoma mansoni NTS incubated for 72 hrs by microscopic method
- Format: functional, organism-based
readout: IC50
Answer with the figure and its unit, nothing else.

Query :: If you can, please state the reported IC50 value of O=C(Nc1cc(C(F)(F)F)ccc1Cl)c1ccccc1O .
Result :: 200 nM

----------
- Tested on: Schistosoma mansoni
- method summary: Antischistosomal activity against Schistosoma mansoni LE schistosomula assessed as reduction in worm vitality measured every 24 hrs by inverted microscopy
- Assay type: functional, organism-based
Below, each of the compounds is paired with its reported EC50 value.

| item smiles | target desc | EC50 |
| --- | --- | --- |
| O=C1c2ccccc2C(=O)N1C/C=N/N=c1\[nH]c(-c2ccccc2)cs1 | Schistosoma mansoni | 5.15 µM |

Turning to the following compound.
Query :: Query the reported EC50 for Schistosoma mansoni; item: Cc1ccc(-c2cs/c(=N/N=C/CN3C(=O)c4ccccc4C3=O)[nH]2)cc1
Result :: 9.77 µM

----------
- target desc: Histone deacetylase 1 (Homo sapiens, UniProt Q13547)
- Sequence (Q13547 whole entry): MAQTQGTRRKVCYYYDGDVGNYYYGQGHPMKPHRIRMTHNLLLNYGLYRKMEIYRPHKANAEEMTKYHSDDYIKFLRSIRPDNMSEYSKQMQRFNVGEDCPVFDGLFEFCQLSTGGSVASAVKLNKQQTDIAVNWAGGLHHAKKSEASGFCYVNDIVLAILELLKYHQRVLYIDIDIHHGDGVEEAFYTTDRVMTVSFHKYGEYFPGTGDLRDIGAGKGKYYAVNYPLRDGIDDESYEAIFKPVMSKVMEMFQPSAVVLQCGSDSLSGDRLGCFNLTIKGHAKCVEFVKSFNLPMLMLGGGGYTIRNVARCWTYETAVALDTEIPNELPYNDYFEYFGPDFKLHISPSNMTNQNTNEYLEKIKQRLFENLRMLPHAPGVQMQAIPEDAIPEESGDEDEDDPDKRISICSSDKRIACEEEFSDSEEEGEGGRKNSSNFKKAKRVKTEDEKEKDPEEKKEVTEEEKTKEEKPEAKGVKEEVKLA
Recorded IC50, one value per entry.
Expressed in µM, but write only the number.

Example entries and their recorded answers appear below.
| molecule | IC50 (µM) |
| --- | --- |
| O=C(/C=C/c1ccccc1Oc1c(Cl)cccc1Cl)NO | 20.2 |
| O=C(/C=C/c1ccccc1Sc1ccc(Cl)cc1)NO | 7.7 |

// moving on: another record for IC50
Query :: Using the record for CCCCCCC(=O)N(O)C1CC(=O)C(c2ccc(Cl)cc2)C1=O (stereo not drawn) , report its IC50.
Result :: 3.98

----------
- method summary: Cytotoxicity against Biomphalaria alexandrina incubated for 24 hrs relative to control
- Design: concentration or dose not given beside the values
readout: mortality (%)
// note: answer is a bare numeric in %

Use the examples below as a reference point.
| molecule | unit | mortality |
| --- | --- | --- |
| Cn1c2nc3ccccc3c-2c(N2CCC(N3CCCCC3)CC2)c2cc(Cl)ccc21 | % | 100 |
| Cn1c2nc3ccccc3c-2c(NCCN2CCOCC2)c2cc(Cl)ccc21 | % | 100 |
| CN1CCN(c2c3cc(Cl)ccc3nc3[nH]c4ccccc4c23)CC1 | % | 100 |
| Cn1c2nc3ccccc3c-2c(N2CCN(CCO)CC2)c2cc(Cl)ccc21 | % | 100 |
| CN(C)CCNc1c2c3ccccc3nc-2n(C)c2ccc(Cl)cc12 | % | 100 |

Query :: Please give the measured mortality for this molecule: CCN1CCCC1CNc1c2c3ccccc3nc-2n(C)c2ccc(Cl)cc12 (configuration not stated)
Result :: 100

Query :: Another: Cn1c2nc3ccccc3c-2c(NCCN2CCCC2)c2cc(Cl)ccc21
Result :: 100

----------
- method summary: Cmax in C57BL/6 mouse at 20 mg/kg, po measured after 3 hrs
- Assay type: ADME, organism-based
- Design: route oral, dose 20 mg/kg, time 3 hrs
- run parameters: in vivo
readout: Cmax (nM)
Give just the numeric value; nM need not be written.

Query :: Please report the recorded Cmax for N#Cc1c(C(F)(F)F)cc(NCc2ccccc2F)n2c1nc1cc(Cl)c(Cl)cc12 .
Result :: 300

----------
- method summary: Cytotoxicity against Biomphalaria alexandrina incubated for 24 hrs
Reported LC90 values for the following molecules.
Express it in nM; write the number only.

The examples below pair each entry with its known result.
| molecule | LC90, nM |
| --- | --- |
| Cn1c2nc3ccccc3c-2c(NCCN2CCOCC2)c2cc(Cl)ccc21 | 2200 |
| Cn1c2nc3ccccc3c-2c(NCCN2CCCC2)c2cc(Cl)ccc21 | 2640 |
| Cn1c2nc3ccccc3c-2c(N2CCN(CCO)CC2)c2cc(Cl)ccc21 | 4800 |
| CN1CCN(c2c3cc(Cl)ccc3nc3[nH]c4ccccc4c23)CC1 | 910 |
| Cn1c2nc3ccccc3c-2c(N2CCC(N3CCCCC3)CC2)c2cc(Cl)ccc21 | 3500 |

Query :: // LC90 lookup, key: CN(C)CCNc1c2c3ccccc3nc-2n(C)c2ccc(Cl)cc12
Result :: 2120

Query :: Try this molecule next: CCN1CCCC1CNc1c2c3ccccc3nc-2n(C)c2ccc(Cl)cc12 (configuration not stated)
Result :: 4100

----------
Listing of entries alongside the reported IC50.
- target desc: UniProtKB A5H660
- Sequence (A5H660 whole entry): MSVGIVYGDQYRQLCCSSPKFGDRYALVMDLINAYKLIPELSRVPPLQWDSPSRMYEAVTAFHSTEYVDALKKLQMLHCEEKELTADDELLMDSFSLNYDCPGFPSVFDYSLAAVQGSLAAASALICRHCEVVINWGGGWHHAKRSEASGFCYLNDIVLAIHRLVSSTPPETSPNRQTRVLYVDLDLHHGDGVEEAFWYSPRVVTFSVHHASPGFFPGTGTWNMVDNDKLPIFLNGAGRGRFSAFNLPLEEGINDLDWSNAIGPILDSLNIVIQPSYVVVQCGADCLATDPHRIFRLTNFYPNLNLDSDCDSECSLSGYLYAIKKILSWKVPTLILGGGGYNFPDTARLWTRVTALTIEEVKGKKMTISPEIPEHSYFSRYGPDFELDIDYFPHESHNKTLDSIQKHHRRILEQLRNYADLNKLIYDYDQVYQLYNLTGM
- method summary: Inhibition of Schistosoma mansoni HDAC8 using fluorogenic substrate by fluorescence method
Give a bare numeral; the unit nM is implied.

| item smiles | target desc | readout | test result |
| --- | --- | --- | --- |
| O=C(NO)c1cccc(C(=O)NOCc2ccc(Cl)cc2Cl)c1 | UniProtKB A5H660 | IC50 | 400 |

Query :: Report IC50 for CN1CCN(NC(=O)c2cccc(C(=O)NO)c2)CC1 please.
Result :: 750

----------
- Tested on: Schistosoma mansoni
- method summary: Antischistosomal activity against adult Schistosoma mansoni Puerto Rican incubated for 72 hrs by microscopic method
- Assay type: functional, organism-based
readout: IC50 (µM)
Kindly provide the numeric value in µM only, without the unit symbol.

Query :: Quick one: IC50 for CC1(C)CCC[C@]2(C)C(CC[C@@](C)(O)/C=C/c3ccc(F)cc3)[C@](C)(O)CC[C@@H]12 (stereo partly specified) ?
Result :: 9.4

----------
- target desc: ATP-diphosphohydrolase 1 (Schistosoma mansoni)
- Sequence (Q7YTA4 whole entry): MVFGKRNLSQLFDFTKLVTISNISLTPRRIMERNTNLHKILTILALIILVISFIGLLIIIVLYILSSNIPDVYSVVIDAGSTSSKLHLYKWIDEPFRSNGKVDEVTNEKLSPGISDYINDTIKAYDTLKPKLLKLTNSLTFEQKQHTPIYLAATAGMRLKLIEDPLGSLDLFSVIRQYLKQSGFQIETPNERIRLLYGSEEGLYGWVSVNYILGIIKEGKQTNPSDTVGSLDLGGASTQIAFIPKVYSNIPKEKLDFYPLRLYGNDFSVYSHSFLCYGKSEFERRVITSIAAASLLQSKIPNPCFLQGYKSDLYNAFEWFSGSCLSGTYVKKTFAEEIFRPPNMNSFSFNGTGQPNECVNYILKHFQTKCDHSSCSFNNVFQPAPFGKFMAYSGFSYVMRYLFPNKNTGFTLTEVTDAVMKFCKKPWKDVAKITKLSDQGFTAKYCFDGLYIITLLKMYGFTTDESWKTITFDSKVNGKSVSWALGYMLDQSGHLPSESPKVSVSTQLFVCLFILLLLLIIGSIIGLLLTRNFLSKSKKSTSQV
- method summary: Inhibition of Schistosoma mansoni ATPDase1 incubated for 30 mins
readout: IC50 (µM)
I only need the number, in µM, no unit after it.

Query :: Value lookup for IC50; key = COc1ccc(/C=C/C(=O)c2ccccc2O)cc1
Result :: 30.6

----------
- target desc: UniProt Q9BY41
- Sequence (Q9BY41 whole entry): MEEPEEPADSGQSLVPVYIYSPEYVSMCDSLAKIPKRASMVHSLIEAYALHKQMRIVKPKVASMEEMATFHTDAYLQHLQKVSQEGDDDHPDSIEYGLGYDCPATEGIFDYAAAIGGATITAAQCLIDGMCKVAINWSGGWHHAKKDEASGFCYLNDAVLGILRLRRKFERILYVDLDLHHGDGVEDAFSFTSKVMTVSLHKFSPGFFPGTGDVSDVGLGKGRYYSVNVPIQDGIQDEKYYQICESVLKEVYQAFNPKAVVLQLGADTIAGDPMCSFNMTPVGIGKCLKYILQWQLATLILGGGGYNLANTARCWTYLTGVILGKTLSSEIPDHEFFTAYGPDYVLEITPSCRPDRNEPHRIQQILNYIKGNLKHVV
- method summary: Inhibition of human HDAC8 using Fluor de Lys as substrate incubated for 90 mins by fluorescence method
readout: pIC50
Units for pIC50: none; it is -log10 of a concentration expressed in mol/L.

| compound | pIC50 |
| --- | --- |
| CCCCCCC(=O)N(O)C1CC(=O)C(c2ccc(Cl)cc2)C1=O (stereo not drawn) | 5.11 |
| O=C(/C=C/c1ccccc1Sc1ccc(Cl)cc1)NO | 6.74 |

We now examine a further compound.
Query :: Consider the compound shown here: O=C(/C=C/c1ccccc1Oc1c(Cl)cccc1Cl)NO What is its recorded pIC50?
Result :: 6.33

----------
- target desc: Thioredoxin glutathione reductase (Schistosoma mansoni, UniProt Q962Y6)
- Sequence (Q962Y6 whole entry): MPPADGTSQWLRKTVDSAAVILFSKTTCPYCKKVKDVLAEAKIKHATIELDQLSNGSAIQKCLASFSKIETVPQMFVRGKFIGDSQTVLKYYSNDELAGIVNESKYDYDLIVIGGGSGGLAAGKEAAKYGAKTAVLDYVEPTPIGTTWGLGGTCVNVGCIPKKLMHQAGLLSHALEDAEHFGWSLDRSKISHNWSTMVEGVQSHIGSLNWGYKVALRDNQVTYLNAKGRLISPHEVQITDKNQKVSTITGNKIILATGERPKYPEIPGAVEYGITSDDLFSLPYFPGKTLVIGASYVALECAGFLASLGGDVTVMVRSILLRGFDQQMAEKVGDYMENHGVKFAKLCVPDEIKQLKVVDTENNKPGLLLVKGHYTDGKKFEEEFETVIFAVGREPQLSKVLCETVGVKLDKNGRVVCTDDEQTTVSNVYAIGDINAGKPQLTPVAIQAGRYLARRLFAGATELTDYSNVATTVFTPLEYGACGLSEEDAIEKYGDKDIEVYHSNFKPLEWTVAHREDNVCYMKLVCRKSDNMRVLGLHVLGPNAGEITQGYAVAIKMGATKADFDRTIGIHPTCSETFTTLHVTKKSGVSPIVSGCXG
Exam item: assign condition met to entries whose IC50 is below 0.2 µM and condition not met to entries at or above 0.2 µM. Note that a value of exactly 0.2 µM receives condition not met.

| molecule | group |
| --- | --- |
| O=c1c(Cl)c(-n2cc(CO)nn2)cnn1-c1ccccc1 | condition not met |
| CCOC(=O)C(C(=O)OCC)C1=C(Br)C2=NOC3c4ccccc4C(=O)C(=C1)C23 (configuration not stated) | condition met |
| COc1ccc([N+](=O)[O-])c(S(=O)(=O)c2ccc(Cl)cc2)n1 | condition met |
| CCN(c1ccccc1)S(=O)(=O)c1ccc(NC(=O)c2nc(S(C)(=O)=O)ncc2Cl)cc1 | condition not met |
| O=[N+]([O-])c1ccc2c(c1)S(=O)(=O)C=C2 | condition not met |
| COc1ccc(C(Nc2cc(C)ccn2)c2ccc3ccc(C)nc3c2O)cc1 (configuration not stated) | condition met |

# evaluate next
Query :: Confirm or reject: IC50 of COC(=O)CS(=O)(=O)c1nnc(C(Cc2ccccc2)NC(=O)OC(C)(C)C)o1 (configuration not stated) lies strictly below 0.2 µM
Result :: condition not met

Values from ChEMBL document CHEMBL4811216
